Data provenance: paper PMC2992954

target: Sfp-PPTase (Bacillus subtilis, UniProt P39135)
Sequence (P39135 whole entry): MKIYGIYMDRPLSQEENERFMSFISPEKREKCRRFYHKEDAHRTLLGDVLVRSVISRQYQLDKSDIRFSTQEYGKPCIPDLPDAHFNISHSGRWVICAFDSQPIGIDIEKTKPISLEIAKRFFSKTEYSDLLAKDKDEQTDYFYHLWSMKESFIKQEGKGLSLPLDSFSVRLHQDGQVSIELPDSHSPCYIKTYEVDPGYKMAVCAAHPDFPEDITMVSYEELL
Structures can show the parent of a compound that is named as a salt.
endpointLabel: IC50 (µM)
Use µM as the unit, but write only the number.

Asked: Any idea what IC50 was measured for Nc1ncnc2c1ncn2[C@@H]1O[C@H](COP(=O)(O)O)[C@@H](OP(=O)(O)O)[C@H]1O [PAP 3, adenosine 3′, 5′-diphosphate sodium salt] ?
Given back: 14.6
